Origin of the recorded values: the supplement of paper PMC10567573

Below, each of the sequences is paired with its reported protein stability index value.
- assay-remarks: protein stability index of a GFP-peptide fusion (GPS, HEK-293T) (PSI 1-6); higher = more stable;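 further: 24-mer peptide tiles fused after GFP, lentivirally expressed, FACS-sorted into six equal bins by GFP/DsRed ratio, decoded by Illumina sequencing, PSI is the read-weighted mean bin number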
- settings: treatment: DMSO; c terminus: a fixed tail appended
// print number alone

These solved cases illustrate the format of a correct answer.
• FSQEIGLASLGASEEAVQKLATCY [TPH1] = 3.12
• LPPCAVRNLQDLARIYIRRTLRNF [PCMTD1] = 2.06

Entry GCSLTADGLPLHFFIQTVRPKDTV [MYORG] , protein stability index reported as 2.3

Entry NAAHLGDKRRDLAHLAAEVEGKCL [TRIM39] , protein stability index reported as 4.46

Entry VISVVSYLILALLSVTISFRIYKS [RTN3] , protein stability index reported as 3.21
